A collection of molecules and their measured IC50
- experimental_system: Aurora A (Homo sapiens (Human), UniProt O14965)
- Sequence (O14965 whole entry): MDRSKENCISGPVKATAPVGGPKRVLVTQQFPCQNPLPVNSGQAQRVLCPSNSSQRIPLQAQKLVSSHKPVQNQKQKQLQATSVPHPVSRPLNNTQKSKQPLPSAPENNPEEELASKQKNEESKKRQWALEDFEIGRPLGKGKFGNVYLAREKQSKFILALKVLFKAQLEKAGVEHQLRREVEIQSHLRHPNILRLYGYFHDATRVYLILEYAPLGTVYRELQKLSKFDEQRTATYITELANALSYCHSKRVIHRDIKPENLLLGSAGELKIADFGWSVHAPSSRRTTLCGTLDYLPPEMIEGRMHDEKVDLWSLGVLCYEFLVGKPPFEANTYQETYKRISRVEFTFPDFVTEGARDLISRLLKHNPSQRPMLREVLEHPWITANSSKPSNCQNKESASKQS
- procedure_text: Aurora A kinase inhibition (IC50)
- Type: biochemical

Sample records with IC50:
O=C(Nc1ccc(Oc2ccnc3[nH]c(=O)c4c(c23)CCCC4)cc1)c1cccn(-c2ccc(F)cc2)c1=O : 0.101 to 1 µM
COc1cccc(Nc2ccnc3[nH]c(=O)c4ccoc4c23)c1 : 0.101 to 1 µM
O=C(Nc1ccc(Nc2ccnc3[nH]c(=O)c4c(c23)CCCC4)cc1)c1cccc(F)c1F : 0.001 to 0.01 µM
O=c1[nH]c2nccc(Nc3ccccc3)c2c2occc12 : 0.101 to 1 µM
O=C(Nc1ccc(Nc2ccnc3[nH]c(=O)c4c(c23)CCCC4)c(F)c1)c1cccc(F)c1 : 0.001 to 0.01 µM

Let's switch to this molecule now.
Query: I am curious: what IC50 value has been reported for O=C(Nc1ccc(Nc2ccnc3[nH]c(=O)c4ccoc4c23)cc1)c1ccccc1 ?
Response: 0.011 to 0.1 µM

###

- experimental_system: Aurora A (Homo sapiens (Human), UniProt O14965)
- procedure_text: Aurora A kinase inhibition (IC50)
- Type: biochemical
- experimental_conditions: read-out: Aurora A IC50
A collection of molecules and their measured IC50

Sample records with IC50:
O=C(Nc1ccc(Nc2ccnc3[nH]c(=O)c4c(c23)CCCC4)cc1)c1cc(Cl)cc(Cl)c1 : 11 to 100 nM
O=C(c1cccn(-c2ccc(F)cc2)c1=O)N1CCOc2cc(Oc3ccnc4[nH]c(=O)c5c(c34)CCCC5)ccc21 : 101 to 1000 nM
Cc1cccc(-n2nc(C(C)(C)C)cc2NC(=O)Nc2ccc(Oc3ccnc4[nH]c(=O)c5c(c34)CCCC5)cc2)c1 : 101 to 1000 nM
O=c1[nH]c2nccc(Cl)c2c2cn(C(c3ccccc3)(c3ccccc3)c3ccccc3)nc12 : 101 to 1000 nM
O=c1[nH]c2nccc(Oc3ccc4c(c3)OCCN4)c2c2c1CCCC2 : 101 to 1000 nM

Query: I am curious: what IC50 value has been reported for O=C(Nc1ccc(Nc2ccnc3[nH]c(=O)c4c(c23)CCNC4)cc1)c1ccc(F)cc1C(F)(F)F ?
Response: 11 to 100 nM

###

A collection of molecules and their measured IC50
- experimental_system: Aurora A (Homo sapiens (Human), UniProt O14965)
- procedure_text: Aurora A kinase inhibition (IC50)
- Assay type: biochemical

Nc1ccc(Oc2ccnc3[nH]c(=O)c4c(c23)CCCC4)cc1 : 101 to 1000 nM

Query: I am curious: what IC50 value has been reported for O=C(Nc1ccc(Nc2ccnc3[nH]c(=O)c4c(c23)CCCC4)cc1)c1cc(F)cc(F)c1 ?
Response: 1 to 10 nM

Query: I am curious: what IC50 value has been reported for O=C(Nc1ccc(Nc2ccnc3[nH]c(=O)c4c(c23)CCNC4)cc1)c1ccc(F)cc1 ?
Response: 101 to 1000 nM

Query: I am curious: what IC50 value has been reported for O=C(Nc1ccc(Nc2ccnc3[nH]c(=O)c4c(c23)CCNC4)cc1)c1ccc(F)c(F)c1 ?
Response: 11 to 100 nM

Query: I am curious: what IC50 value has been reported for O=C(Nc1ccc(Nc2ccnc3[nH]c(=O)c4c(c23)CCCC4)cc1F)c1ccc(F)cc1C(F)(F)F ?
Response: 1 to 10 nM

Query: I am curious: what IC50 value has been reported for O=C(Nc1ccc(Nc2ccnc3[nH]c(=O)c4n[nH]cc4c23)cc1)c1ccccc1 ?
Response: 11 to 100 nM

Query: I am curious: what IC50 value has been reported for O=c1[nH]c2nccc(Nc3ccc(Cl)cc3)c2c2occc12 ?
Response: 101 to 1000 nM

Query: I am curious: what IC50 value has been reported for O=C(Nc1ccc(Nc2ccnc3[nH]c(=O)c4c(c23)CCCC4)c(F)c1)c1ccc(F)cc1C(F)(F)F ?
Response: 1 to 10 nM

Query: I am curious: what IC50 value has been reported for O=C(Nc1ccc(Nc2ccnc3[nH]c(=O)c4c(c23)CCCC4)cc1)c1ccc(F)cc1C(F)(F)F ?
Response: 1 to 10 nM

Query: I am curious: what IC50 value has been reported for O=C(Nc1ccc(Nc2ccnc3[nH]c(=O)c4c(c23)CCCC4)cc1)c1cccc(C(F)(F)F)c1F ?
Response: 1 to 10 nM

Query: I am curious: what IC50 value has been reported for O=C(Nc1ccc(Nc2ccnc3[nH]c(=O)c4c(c23)CCCC4)cc1)c1c(Cl)cccc1Cl ?
Response: 1 to 10 nM
